# Tested on: NCI-H1355
# test_summary: relative viability (nuclei count vs DMSO), 5 days (fraction); higher = more cells survive
# test_context: first compound 0.8 µM
observed_property: relative viability
Keep the answer to the number alone.

Solved cases (3 shown):
{"compound": "O=c1[nH]c2ccccc2n1C1CCN(CCCC(c2ccc(F)cc2)c2ccc(F)cc2)CC1 [Pimozide] + CS(=O)(=O)N1CCN(Cc2cc3nc(-c4cccc5[nH]ncc45)nc(N4CCOCC4)c3s2)CC1 [Pictilisib] (partner 1 µM)", "relative viability": 0.436}
{"compound": "Cc1cnc(-c2cnc(NCCNc3ccc(C#N)cn3)nc2-c2ccc(Cl)cc2Cl)[nH]1 + Cc1nc(NC(=O)N2CCC[C@H]2C(N)=O)sc1-c1ccnc(C(C)(C)C(F)(F)F)c1 [Alpelisib] (partner 2 µM)", "relative viability": 0.786}
{"compound": "O=c1[nH]c2ccccc2n1C1CCN(CCCC(c2ccc(F)cc2)c2ccc(F)cc2)CC1 [Pimozide] + CC(C)C[C@H](NC(=O)[C@H](Cc1ccccc1)NC(=O)c1cnccn1)B(O)O [Bortezomib] (partner 0.002 µM)", "relative viability": 1.05}

Query block: Any idea what its relative viability is? The compound is Cc1cnc(-c2cnc(NCCNc3ccc(C#N)cn3)nc2-c2ccc(Cl)cc2Cl)[nH]1 + NC(=O)Nc1cc(-c2cccc(F)c2)sc1C(=O)N[C@H]1CCCNC1 [AZD7762] (partner 0.2 µM)
Result block: 0.691

###

This listing pairs compounds with measured relative viability.
# Test system: A-427
# test_summary: relative viability (nuclei count vs DMSO), 5 days (fraction); higher = more cells survive
# test_context: first compound 0.005 µM
Keep the answer to the number alone.

Solved cases (8 shown):
{"compound": "Nc1ccn([C@@H]2O[C@H](CO)[C@@H](O)[C@@H]2O)c(=O)n1 [Cytarabine] + Cc1nc(NC(=O)N2CCC[C@H]2C(N)=O)sc1-c1ccnc(C(C)(C)C(F)(F)F)c1 [Alpelisib] (partner 2 µM)", "study_target": "A-427", "readout_value": 0.823}
{"compound": "COc1cc2nccc(Oc3ccc(NC(=O)Nc4cc(C)on4)c(Cl)c3)c2cc1OC [Tivozanib] + CS(=O)(=O)CCNCc1ccc(-c2ccc3ncnc(Nc4ccc(OCc5cccc(F)c5)c(Cl)c4)c3c2)o1 [Lapatinib] (partner 2 µM)", "study_target": "A-427", "readout_value": 1.02}
{"compound": "Nc1ccn([C@@H]2O[C@H](CO)[C@@H](O)[C@@H]2O)c(=O)n1 [Cytarabine] + CS(=O)(=O)N1CCN(Cc2cc3nc(-c4cccc5[nH]ncc45)nc(N4CCOCC4)c3s2)CC1 [Pictilisib] (partner 1 µM)", "study_target": "A-427", "readout_value": 0.576}
{"compound": "Nc1ccn([C@@H]2O[C@H](CO)[C@@H](O)[C@@H]2O)c(=O)n1 [Cytarabine] + CCNC(=O)c1noc(-c2cc(C(C)C)c(O)cc2O)c1-c1ccc(CN2CCOCC2)cc1 [Luminespib] (partner 0.01 µM)", "study_target": "A-427", "readout_value": 0.708}
{"compound": "Nc1ccn([C@@H]2O[C@H](CO)[C@@H](O)[C@@H]2O)c(=O)n1 [Cytarabine] + C[C@]1(O)C[C@@H](c2nc(-c3ccc4ccc(-c5ccccc5)nc4c3)c3c(N)nccn32)C1 [Linsitinib] (partner 1 µM)", "study_target": "A-427", "readout_value": 0.909}
{"compound": "Nc1ccn([C@@H]2O[C@H](CO)[C@@H](O)[C@@H]2O)c(=O)n1 [Cytarabine] + Nc1nc2[nH]cc(CCc3ccc(C(=O)N[C@@H](CCC(=O)O)C(=O)O)cc3)c2c(=O)[nH]1 [Pemetrexed] (partner 0.2 µM)", "study_target": "A-427", "readout_value": 0.745}
{"compound": "Nc1ccn([C@@H]2O[C@H](CO)[C@@H](O)[C@@H]2O)c(=O)n1 [Cytarabine] + Cc1nc(Nc2ncc(C(=O)Nc3c(C)cccc3Cl)s2)cc(N2CCN(CCO)CC2)n1 [Dasatinib] (partner 0.075 µM)", "study_target": "A-427", "readout_value": 0.591}
{"compound": "Nc1ccn([C@@H]2O[C@H](CO)[C@@H](O)[C@@H]2O)c(=O)n1 [Cytarabine] + CC1(C)CCC(c2ccc(Cl)cc2)=C(CN2CCN(c3ccc(C(=O)NS(=O)(=O)c4ccc(N[C@H](CCN5CCOCC5)CSc5ccccc5)c(S(=O)(=O)C(F)(F)F)c4)cc3)CC2)C1 [Navitoclax] (partner 0.5 µM)", "study_target": "A-427", "readout_value": 0.813}

Query block: Any idea what its relative viability is? The compound is COc1cc2nccc(Oc3ccc(NC(=O)Nc4cc(C)on4)c(Cl)c3)c2cc1OC [Tivozanib] + Nc1ncn([C@H]2C[C@H](O)[C@@H](CO)O2)c(=O)n1 [Decitabine] (partner 2 µM)
Result block: 0.566

Query block: Any idea what its relative viability is? The compound is COc1cc2nccc(Oc3ccc(NC(=O)Nc4cc(C)on4)c(Cl)c3)c2cc1OC [Tivozanib] + CC1(C)CCC(c2ccc(Cl)cc2)=C(CN2CCN(c3ccc(C(=O)NS(=O)(=O)c4ccc(N[C@H](CCN5CCOCC5)CSc5ccccc5)c(S(=O)(=O)C(F)(F)F)c4)cc3)CC2)C1 [Navitoclax] (partner 0.5 µM)
Result block: 0.924

Query block: Any idea what its relative viability is? The compound is COc1cc2nccc(Oc3ccc(NC(=O)Nc4cc(C)on4)c(Cl)c3)c2cc1OC [Tivozanib] + Cc1nc(NC(=O)N2CCC[C@H]2C(N)=O)sc1-c1ccnc(C(C)(C)C(F)(F)F)c1 [Alpelisib] (partner 2 µM)
Result block: 1.05

Query block: Any idea what its relative viability is? The compound is COc1cc2nccc(Oc3ccc(NC(=O)Nc4cc(C)on4)c(Cl)c3)c2cc1OC [Tivozanib] + CC(=O)c1c(C)c2cnc(Nc3ccc(N4CCNCC4)cn3)nc2n(C2CCCC2)c1=O [Palbociclib] (partner 0.5 µM)
Result block: 0.51

###

# Test system: NCI-H23
# test_summary: relative viability (nuclei count vs DMSO), 5 days (fraction); higher = more cells survive
# test_context: first compound 0.08 µM
observed_property: relative viability
Keep the answer to the number alone.

Solved cases (3 shown):
{"molecule": "Cc1cnc(-c2cnc(NCCNc3ccc(C#N)cn3)nc2-c2ccc(Cl)cc2Cl)[nH]1 + O=C(CCCCCCC(=O)Nc1ccccc1)NO [Vorinostat] (partner 1 µM)", "readout_value": 0.568}
{"molecule": "O=c1[nH]c2ccccc2n1C1CCN(CCCC(c2ccc(F)cc2)c2ccc(F)cc2)CC1 [Pimozide] + CC(=O)c1c(C)c2cnc(Nc3ccc(N4CCNCC4)cn3)nc2n(C2CCCC2)c1=O [Palbociclib] (partner 0.5 µM)", "readout_value": 0.454}
{"molecule": "O=c1[nH]c2ccccc2n1C1CCN(CCCC(c2ccc(F)cc2)c2ccc(F)cc2)CC1 [Pimozide] + C[C@]1(O)C[C@@H](c2nc(-c3ccc4ccc(-c5ccccc5)nc4c3)c3c(N)nccn32)C1 [Linsitinib] (partner 1 µM)", "readout_value": 0.609}

Query block: Any idea what its relative viability is? The molecule is Cc1cnc(-c2cnc(NCCNc3ccc(C#N)cn3)nc2-c2ccc(Cl)cc2Cl)[nH]1 + COc1cccc2cc(-c3nc([C@H]4CC[C@H](C(=O)O)CC4)n4ncnc(N)c34)[nH]c12 [OSI-027] (partner 0.5 µM)
Result block: 0.592

Query block: Any idea what its relative viability is? The molecule is Cc1cnc(-c2cnc(NCCNc3ccc(C#N)cn3)nc2-c2ccc(Cl)cc2Cl)[nH]1 + Cc1cc(Nc2cc(N3CCN(C)CC3)nc(Sc3ccc(NC(=O)C4CC4)cc3)n2)n[nH]1 [Tozasertib] (partner 0.1 µM)
Result block: 0.383

###

# System: NCI-H2228
# test_summary: relative viability (nuclei count vs DMSO), 5 days (fraction); higher = more cells survive
# test_context: first compound 2.53 µM
observed_property: relative viability
Keep the answer to the number alone.

Query block: Any idea what its relative viability is? The compound is O=c1[nH]c2ccccc2n1C1CCN(CCCC(c2ccc(F)cc2)c2ccc(F)cc2)CC1 [Pimozide] + COc1cccc2cc(-c3nc([C@H]4CC[C@H](C(=O)O)CC4)n4ncnc(N)c34)[nH]c12 [OSI-027] (partner 0.5 µM)
Result block: 0.451

###

# Test system: RERF-LC-KJ
# test_summary: relative viability (nuclei count vs DMSO), 5 days (fraction); higher = more cells survive
# test_context: first compound 50 µM
observed_property: relative viability
Keep the answer to the number alone.

Solved cases (3 shown):
{"compound": "O=C(O)CCCCC(CCSCc1ccccc1)SCc1ccccc1 (centres undefined) [CPI-613] + O=C(c1cc(Cc2n[nH]c(=O)c3ccccc23)ccc1F)N1CCN(C(=O)C2CC2)CC1 [Olaparib] (partner 8 µM)", "relative viability": 0.804}
{"compound": "O=C(O)CCCCC(CCSCc1ccccc1)SCc1ccccc1 (centres undefined) [CPI-613] + NC(=O)Nc1cc(-c2cccc(F)c2)sc1C(=O)N[C@H]1CCCNC1 [AZD7762] (partner 0.2 µM)", "relative viability": 1}
{"compound": "O=C(O)CCCCC(CCSCc1ccccc1)SCc1ccccc1 (centres undefined) [CPI-613] + Nc1ncn([C@H]2C[C@H](O)[C@@H](CO)O2)c(=O)n1 [Decitabine] (partner 2 µM)", "relative viability": 0.643}

# next compound below
Query block: Form field: relative viability recorded for O=C(O)CCCCC(CCSCc1ccccc1)SCc1ccccc1 (centres undefined) [CPI-613] + C[C@@H](Oc1cc(-c2cnn(C3CCNCC3)c2)cnc1N)c1c(Cl)ccc(F)c1Cl [Crizotinib] (partner 1 µM) with RERF-LC-KJ (enter value)
Result block: 0.76

src = the supplement of paper PMC10307832
